These measurements were taken from patent US20230000870A1.

- TESTED SYSTEM: CDK7/Cyclin H/MAT1 complex (Homo sapiens)
- TEST NAME: CDK7 kinase inhibition assay (Caliper/LabChip EZ Reader)
- SETTINGS: CDK7/Cyclin H/MAT1 6 nM, ATP 2 mM, 35 min at 27° C.
pIC50: −log10 of the molar value.
Form field: pIC50 (one value per entry).
OBSERVED PROPERTY: pIC50

COMPOUND: FC(F)(F)c1cnc(N[C@H]2CCCNC2)nc1-c1c[nH]c2cc(-c3nccs3)ccc12
RESULT: > 7.70
--
COMPOUND: Fc1cnc2[nH]cc(-c3nc(NC4CCCNC4)ncc3C(F)(F)F)c2c1 (stereo not drawn)
RESULT: > 7.70
--
COMPOUND: CC(O)c1cnc(NC2CCCNC2)nc1-c1c[nH]c2ccccc12 (stereo not drawn) [Compound 247]
RESULT: 5.30 to 6.70

----------
- TESTED SYSTEM: CDK12 (aa686-1082)/Cyclin K complex (Homo sapiens, UniProt Q9NYV4)
- Construct: CDK12 (aa686-1082)/Cyclin K complex
- Sequence (Q9NYV4 686-1082): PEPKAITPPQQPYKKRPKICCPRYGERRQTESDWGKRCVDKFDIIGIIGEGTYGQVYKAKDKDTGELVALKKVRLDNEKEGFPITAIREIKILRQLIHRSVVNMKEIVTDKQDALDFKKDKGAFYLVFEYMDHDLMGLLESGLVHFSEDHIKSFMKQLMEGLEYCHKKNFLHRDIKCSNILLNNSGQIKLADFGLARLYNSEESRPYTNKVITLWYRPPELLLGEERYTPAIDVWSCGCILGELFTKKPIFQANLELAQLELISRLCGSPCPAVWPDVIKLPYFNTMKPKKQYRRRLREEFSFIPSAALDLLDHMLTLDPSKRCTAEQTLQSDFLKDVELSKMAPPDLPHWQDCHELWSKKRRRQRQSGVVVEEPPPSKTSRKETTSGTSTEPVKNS
- Sequence (O75909 whole entry partner, the tested form may be a part): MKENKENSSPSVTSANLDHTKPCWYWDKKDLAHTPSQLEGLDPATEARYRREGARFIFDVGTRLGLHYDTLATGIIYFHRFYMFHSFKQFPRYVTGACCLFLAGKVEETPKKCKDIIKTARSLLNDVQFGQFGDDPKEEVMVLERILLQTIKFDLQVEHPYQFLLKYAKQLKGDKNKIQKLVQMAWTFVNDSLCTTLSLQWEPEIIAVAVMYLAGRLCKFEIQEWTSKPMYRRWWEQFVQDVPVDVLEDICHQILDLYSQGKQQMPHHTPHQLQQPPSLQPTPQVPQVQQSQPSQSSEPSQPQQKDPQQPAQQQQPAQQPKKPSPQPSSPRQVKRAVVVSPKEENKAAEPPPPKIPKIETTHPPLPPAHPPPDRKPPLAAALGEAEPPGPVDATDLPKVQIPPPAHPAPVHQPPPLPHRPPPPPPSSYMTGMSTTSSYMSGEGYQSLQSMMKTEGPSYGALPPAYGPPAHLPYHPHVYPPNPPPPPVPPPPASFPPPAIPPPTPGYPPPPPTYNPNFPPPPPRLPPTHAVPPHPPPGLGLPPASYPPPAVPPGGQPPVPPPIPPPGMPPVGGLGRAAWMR
- TEST NAME: CDK12 kinase inhibition assay (Caliper/LabChip EZ Reader)
- SETTINGS: CDK12 (aa686-1082)/Cyclin K 50 nM, ATP 2 mM, 3 hr at 27° C.

COMPOUND: CCc1cnc(NC2CCCNC2)nc1-c1c[nH]c2ncc(F)cc12 (stereo not drawn)
TESTED SYSTEM: CDK12 (aa686-1082)/Cyclin K complex (Homo sapiens, UniProt Q9NYV4)
IC50: ≥ 5 µM

COMPOUND: CC(=O)c1ccc2c(-c3nc(N[C@H]4CCCNC4)ncc3C(F)(F)F)c[nH]c2c1
TESTED SYSTEM: CDK12 (aa686-1082)/Cyclin K complex (Homo sapiens, UniProt Q9NYV4)
IC50: 0.2 to 5 µM

COMPOUND: Clc1cnc(N[C@H]2CCCNC2)nc1-c1n[nH]c2ccccc12
TESTED SYSTEM: CDK12 (aa686-1082)/Cyclin K complex (Homo sapiens, UniProt Q9NYV4)
IC50: 0.2 to 5 µM

----------
- TESTED SYSTEM: CDK7/Cyclin H/MAT1 complex (Homo sapiens, UniProt P50613)
- Sequence (P50613 whole entry): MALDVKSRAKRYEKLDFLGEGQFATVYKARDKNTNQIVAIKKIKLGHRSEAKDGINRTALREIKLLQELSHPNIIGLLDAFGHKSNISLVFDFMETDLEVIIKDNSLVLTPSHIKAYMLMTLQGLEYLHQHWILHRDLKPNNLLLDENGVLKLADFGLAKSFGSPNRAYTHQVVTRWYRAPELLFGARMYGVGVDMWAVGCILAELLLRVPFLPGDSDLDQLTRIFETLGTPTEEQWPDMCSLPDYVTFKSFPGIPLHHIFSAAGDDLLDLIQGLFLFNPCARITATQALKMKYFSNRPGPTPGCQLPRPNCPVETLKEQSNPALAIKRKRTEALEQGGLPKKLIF
- Sequence (P51946 whole entry partner): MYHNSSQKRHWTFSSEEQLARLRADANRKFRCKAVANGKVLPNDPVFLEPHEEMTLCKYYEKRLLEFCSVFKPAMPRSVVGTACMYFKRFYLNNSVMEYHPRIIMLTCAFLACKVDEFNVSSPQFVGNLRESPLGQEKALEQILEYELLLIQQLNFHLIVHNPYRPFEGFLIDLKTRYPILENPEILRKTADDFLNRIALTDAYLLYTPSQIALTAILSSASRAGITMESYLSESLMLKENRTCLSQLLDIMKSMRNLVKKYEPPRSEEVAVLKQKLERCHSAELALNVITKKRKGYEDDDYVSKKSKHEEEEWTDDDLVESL
- Sequence (P51948 whole entry partner): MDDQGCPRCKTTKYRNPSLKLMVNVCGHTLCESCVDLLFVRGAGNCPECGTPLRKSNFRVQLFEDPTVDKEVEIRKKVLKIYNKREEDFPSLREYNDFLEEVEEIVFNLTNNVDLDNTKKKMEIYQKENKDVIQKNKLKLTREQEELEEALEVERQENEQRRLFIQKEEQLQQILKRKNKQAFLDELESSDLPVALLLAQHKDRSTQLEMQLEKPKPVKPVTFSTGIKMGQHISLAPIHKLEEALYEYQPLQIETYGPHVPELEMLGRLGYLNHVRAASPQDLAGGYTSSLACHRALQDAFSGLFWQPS
- TEST NAME: CDK7 kinase inhibition assay (Caliper/LabChip EZ Reader)
- SETTINGS: CDK7/Cyclin H/MAT1 6 nM, ATP 2 mM, 35 min at 27° C.

MOLECULE: c1ccc2c(-c3nc(NC4CCCNC4)ncc3C3CC3)c[nH]c2c1 (stereo not shown)
TESTED SYSTEM: CDK7/Cyclin H/MAT1 complex (Homo sapiens, UniProt P50613)
IC50: 20 to 200 nM
//
MOLECULE: FC(F)(F)c1cnc(NC2CNCc3ccccc32)nc1-c1c[nH]c2ccccc12 (stereo not shown)
TESTED SYSTEM: CDK7/Cyclin H/MAT1 complex (Homo sapiens, UniProt P50613)
IC50: 200 to 5000 nM
//
MOLECULE: CN(C)S(=O)(=O)c1cccc2c(-c3nc(NC4CCCNC4)ncc3C(F)(F)F)c[nH]c12 (stereo not shown)
TESTED SYSTEM: CDK7/Cyclin H/MAT1 complex (Homo sapiens, UniProt P50613)
IC50: < 20 nM
//
MOLECULE: CC(O)c1cnc(NC2CCCNC2)nc1-c1c[nH]c2ccccc12 (stereo not shown) [Compound 238]
TESTED SYSTEM: CDK7/Cyclin H/MAT1 complex (Homo sapiens, UniProt P50613)
IC50: 200 to 5000 nM
//
MOLECULE: CC1CNCC(Nc2ncc(Cl)c(-c3c[nH]c4ccccc34)n2)C1 (stereo not shown) [Compound 182]
TESTED SYSTEM: CDK7/Cyclin H/MAT1 complex (Homo sapiens, UniProt P50613)
IC50: 20 to 200 nM
//
MOLECULE: CCc1cnc(N[C@H]2CCCNC2)nc1-c1c[nH]c2c(F)c(C#N)ccc12
TESTED SYSTEM: CDK7/Cyclin H/MAT1 complex (Homo sapiens, UniProt P50613)
IC50: 20 to 200 nM
//
MOLECULE: Fc1cc2[nH]cc(-c3nc(NC4CCCNC4)ncc3Cl)c2cc1F (stereo not shown)
TESTED SYSTEM: CDK7/Cyclin H/MAT1 complex (Homo sapiens, UniProt P50613)
IC50: < 20 nM
//
MOLECULE: Cn1cc(-c2ccc3[nH]cc(-c4nc(NC5CCCNC5)ncc4C(F)(F)F)c3c2)cn1 (stereo not shown)
TESTED SYSTEM: CDK7/Cyclin H/MAT1 complex (Homo sapiens, UniProt P50613)
IC50: 20 to 200 nM
//
MOLECULE: NC(=O)c1cccc(-c2ccc3c(-c4nc(NC5CCCNC5)ncc4C(F)(F)F)c[nH]c3c2)c1 (stereo not shown)
TESTED SYSTEM: CDK7/Cyclin H/MAT1 complex (Homo sapiens, UniProt P50613)
IC50: < 20 nM
//
MOLECULE: CN1CCC[C@H](Nc2ncc(C(F)(F)F)c(-c3c[nH]c4cc(S(C)(=O)=O)ccc34)n2)C1
TESTED SYSTEM: CDK7/Cyclin H/MAT1 complex (Homo sapiens, UniProt P50613)
IC50: 20 to 200 nM
